molecular target: BChE (Equus caballus); construct: BChE (C1057-1KU), extracted from equine serum; experiment: biochemical; conditions: Lineweaver-Burk plots
Sequence (P81908 whole entry): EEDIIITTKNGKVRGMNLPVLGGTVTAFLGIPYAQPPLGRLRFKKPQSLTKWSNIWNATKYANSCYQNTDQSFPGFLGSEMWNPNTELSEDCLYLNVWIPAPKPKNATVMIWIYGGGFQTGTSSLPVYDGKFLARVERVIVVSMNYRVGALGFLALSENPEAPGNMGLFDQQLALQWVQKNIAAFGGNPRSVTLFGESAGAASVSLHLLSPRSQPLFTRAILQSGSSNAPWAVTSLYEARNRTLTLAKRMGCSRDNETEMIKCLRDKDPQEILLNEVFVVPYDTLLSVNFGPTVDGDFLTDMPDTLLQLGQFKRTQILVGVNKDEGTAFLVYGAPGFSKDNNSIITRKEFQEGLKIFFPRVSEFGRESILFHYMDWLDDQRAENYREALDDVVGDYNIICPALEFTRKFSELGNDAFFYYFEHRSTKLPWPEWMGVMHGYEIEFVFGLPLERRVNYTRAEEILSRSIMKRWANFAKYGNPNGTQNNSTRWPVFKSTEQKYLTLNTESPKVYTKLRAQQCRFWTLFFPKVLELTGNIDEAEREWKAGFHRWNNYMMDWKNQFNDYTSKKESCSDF
reported-metric: pKi
Note: pKi values are expressed as the negative base-10 logarithm of concentration in M.

Answered cases to consult:
# compound, pKi
data = [
    ("O=C(/C=C/c1c(-c2ccccc2)nc2sc(SCc3ccccc3)nn12)c1ccc(Cl)cc1 [8b]", 8.77),
    ("COc1ccc(C(=O)/C=C/c2c(-c3ccccc3)nc3sc(SCc4ccc(F)cc4)nn23)cc1 [8c]", 8.81),
    ("O=C(/C=C/c1c(-c2ccccc2)nc2sc(SCc3ccc(F)cc3)nn12)c1ccc(Cl)cc1 [8d]", 8.75),
]

Okay, now this compound:
GET /values?item= COc1ccc(C(=O)/C=C/c2c(-c3ccccc3)nc3sc(SCc4ccccc4)nn23)cc1 [8a] &system= BChE (Equus caballus) returns pKi: 9.00
